Entry source: paper PMC12267056

assayed target: human SLC35B1 (wild type) (Homo sapiens)
Sequence (P78383 1-322): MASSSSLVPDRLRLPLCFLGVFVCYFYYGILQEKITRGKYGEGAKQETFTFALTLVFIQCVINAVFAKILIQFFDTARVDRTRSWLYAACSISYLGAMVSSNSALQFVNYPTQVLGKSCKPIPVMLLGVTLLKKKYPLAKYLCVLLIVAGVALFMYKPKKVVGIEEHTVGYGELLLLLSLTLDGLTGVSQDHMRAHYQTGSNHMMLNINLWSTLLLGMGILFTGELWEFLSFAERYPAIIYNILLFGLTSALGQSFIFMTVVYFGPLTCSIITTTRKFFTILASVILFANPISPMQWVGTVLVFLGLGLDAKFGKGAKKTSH
Type: binding
Design: made in house; host or cells: Saccharomyces cerevisiae FGY217
condition description: 1 mM nucleotide; purified wild-type SLC35B1–GFP
measurement label: ΔTm (average melting temperature increase) (°C)
Record the value in °C, omitting the unit from your answer.

[in] Give the measured ΔTm (average melting temperature increase) of Nc1ncnc2c1ncn2[C@@H]1O[C@H](COP(=O)(O)OP(=O)(O)O)[C@@H](O)[C@H]1O .
[out] 5.3

[in] Give the measured ΔTm (average melting temperature increase) of Nc1ncnc2c1ncn2[C@@H]1O[C@H](COP(=O)(O)OP(=O)(O)OP(=O)(O)O)[C@@H](O)[C@H]1O .
[out] 5.2

[in] Give the measured ΔTm (average melting temperature increase) of Nc1ncnc2c1ncn2[C@@H]1O[C@H](COP(=O)(O)O)[C@@H](O)[C@H]1O [AMP, adenosine monophosphate] .
[out] 1.1

* * *

assayed target: human SLC35B1 (wild type) (Homo sapiens)
test description: Competitive uptake assay: [3H]ADP uptake with 1 mM cold nucleotide
Assay type: biochemical
Set-up: made in house; host or cells: Saccharomyces cerevisiae FGY217
condition description: 1 mM external cold nucleotide; proteoliposomes preloaded with 1 mM ATP
measurement label: Normalized SLC35B1-mediated uptake of [3H]ADP in competition with cold nucleotide

# compound, obs value
data = [
    ("Nc1ccn([C@@H]2O[C@H](COP(=O)(O)OP(=O)(O)OP(=O)(O)O)[C@@H](O)[C@H]2O)c(=O)n1 [CTP, cytidine triphosphate]", "strong competition"),
    ("O=c1ccn([C@@H]2O[C@H](CO[P@@](=O)(O)O[P@@](=O)(O)OP(=O)(O)O)[C@@H](O)[C@H]2O)c(=O)[nH]1 (stereo in doubt) [UTP, uridine triphosphate]", "strong competition"),
]

* * *

assayed target: SLC35B1-Fv-MBP fusion protein (Homo sapiens)
Construct: TEV site (C); GFP (C); His8 (C); Fv–MBP: Brevibacillus choshinensis (secreted)
Sequence (P78383 1-322): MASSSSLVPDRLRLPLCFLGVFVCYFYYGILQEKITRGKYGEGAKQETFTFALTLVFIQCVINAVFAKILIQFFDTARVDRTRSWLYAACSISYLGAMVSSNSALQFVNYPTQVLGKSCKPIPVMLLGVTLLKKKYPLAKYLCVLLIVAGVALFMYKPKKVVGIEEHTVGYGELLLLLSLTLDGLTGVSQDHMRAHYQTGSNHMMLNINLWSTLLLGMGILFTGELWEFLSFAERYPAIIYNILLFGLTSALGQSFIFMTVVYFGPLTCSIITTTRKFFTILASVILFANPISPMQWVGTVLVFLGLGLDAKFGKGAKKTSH
test description: IC50 for ADP competition of [3H]-ADP/ATP transport, SLC35B1-Fv-MBP
condition description: read-out: IC50, external ADP competition of [3H]-ADP/ATP transport; SLC35B1-Fv-MBP fusion protein in proteoliposomes
measurement label: pIC50
Would you please state pIC50, meaning minus log10 of the concentration in mol/L, as a bare number?

[in] Give the measured pIC50 of Nc1ncnc2c1ncn2[C@@H]1O[C@H](COP(=O)(O)OP(=O)(O)O)[C@@H](O)[C@H]1O .
[out] 5.56
